Test system: Saccharomyces cerevisiae;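 further: PSI is a weighted mean of sequencing reads over stability bins, variants kept only with over 10 reads, mCherry proximal and sfGFP distal, peptide attached via GGGS linker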
Test: protein stability index of tFT-peptide fusion (C-terminal peptide) (PSI (0-1 scale)); higher = more stable (slower turnover)
Conditions: genetic background: wild type; temperature: 30 C
quantity: protein stability index
Just the number.

chain	protein stability index
LRPPPPRGPSPP	0.689
APASPSFPLSAP	0.673
FRYICYSRPVMR	0.684
PPPPPPPPHPPP	0.559
RPRVCFPHIAGT	0.777
LWFVIYLLCFFV	0.348
VGGGGGVSLGGR	0.655
CLWCCFTDCCDT	0.762
LVGTYTPRFTPC	0.643
NLPLVDIIPISN	0.828

Just so you know, measured protein stability index for `RCIAAEFFRVHP` came out at 0.685

Just so you know, measured protein stability index for `QIIRKKSKVPTH` came out at 0.686

Just so you know, measured protein stability index for `PSPPLPLPLLSV` came out at 0.633

Just so you know, measured protein stability index for `PPVPPPLPSPPP` came out at 0.712

Just so you know, measured protein stability index for `LGCDDWIDWSRG` came out at 0.694

Just so you know, measured protein stability index for `RFLPYLPTPLSP` came out at 0.52

Just so you know, measured protein stability index for `FRCRFLLPFYSV` came out at 0.482

Just so you know, measured protein stability index for `LPRGLRAISCVE` came out at 0.569

Just so you know, measured protein stability index for `VPIIVVVYVFVT` came out at 0.203
